Reported Cmax values for the following molecules.
# Test Summary: Cmax in Sprague-Dawley rat at 2.5 mg/kg, po measured upto 24 hrs by LC-MS/MS analysis
# Type: ADME, organism-based
# Parameters: dose 2.5 mg/kg, time < 24 hrs, route po
# Condition Info: in vivo
Please reply with the bare figure in ng/mL and do not write the unit itself.

Here's what some known entries look like.
>  <Molecular String>
N#Cc1ccc2[nH]cc(CCCCN3CCN(c4ccc5oc(C(N)=O)cc5c4)CC3)c2c1

>  <Uom>
ng/mL

>  <Cmax>
173

$$$$
>  <Molecular String>
N#Cc1ccc2[nH]cc(CCCCN3CCN(c4ncc(-c5ccc(F)cc5F)cn4)CC3)c2c1

>  <Uom>
ng/mL

>  <Cmax>
180

$$$$
>  <Molecular String>
N#Cc1ccc2[nH]cc(CCCCN3CCN(c4ncc(-c5cccc(C(N)=O)c5)cn4)CC3)c2c1

>  <Uom>
ng/mL

>  <Cmax>
241

$$$$

Ask: Entry under review: N#Cc1ccc2[nH]cc(CCCCN3CCN(c4ncc(-c5ccc(Cl)cc5)cn4)CC3)c2c1 . Reported Cmax?
Reply: 207

* * *

As an illustration, consider measured IC50 for compounds on UniProtKB P31645.
Sequence (P31645 whole entry): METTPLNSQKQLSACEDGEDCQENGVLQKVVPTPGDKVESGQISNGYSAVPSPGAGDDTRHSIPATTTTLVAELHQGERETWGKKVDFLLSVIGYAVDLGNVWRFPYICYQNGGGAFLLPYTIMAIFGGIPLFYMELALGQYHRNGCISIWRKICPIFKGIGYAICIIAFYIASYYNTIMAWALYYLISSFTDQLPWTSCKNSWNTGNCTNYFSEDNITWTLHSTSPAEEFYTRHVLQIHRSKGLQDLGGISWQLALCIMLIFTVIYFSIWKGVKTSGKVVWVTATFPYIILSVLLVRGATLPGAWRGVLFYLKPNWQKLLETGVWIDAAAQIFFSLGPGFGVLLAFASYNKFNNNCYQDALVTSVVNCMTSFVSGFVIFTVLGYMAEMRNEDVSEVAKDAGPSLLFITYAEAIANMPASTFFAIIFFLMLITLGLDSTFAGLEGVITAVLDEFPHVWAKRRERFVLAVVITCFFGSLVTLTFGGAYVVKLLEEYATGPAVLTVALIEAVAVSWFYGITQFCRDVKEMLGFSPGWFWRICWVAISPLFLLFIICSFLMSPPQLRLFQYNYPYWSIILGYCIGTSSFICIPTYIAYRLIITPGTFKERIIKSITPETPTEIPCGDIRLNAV
Please reply with the bare figure in nM and do not write the unit itself.

>  <Molecular String>
N#Cc1ccc2[nH]cc(CCCCN3CCN(c4ncc(-c5cccc(C(N)=O)c5)cn4)CC3)c2c1

>  <Measurement>
0.35

$$$$

Attention now shifts to the item below.
Ask: Entry under review: N#Cc1ccc2[nH]cc(CCCCN3CCN(c4ncc(-c5ccc(Cl)cc5)cn4)CC3)c2c1 . Reported IC50?
Reply: 0.32

* * *

# Test Summary: Cmax in Beagle dog at 1 mg/kg, iv measured upto 24 hrs by LC-MS/MS analysis
# Type: ADME, organism-based, Canis lupus familiaris
# Design: dose 1 mg/kg, time < 24 hrs, route iv
# Condition Info: in vivo
Reported Cmax values for the following compounds.
Please reply with the bare figure in ng/mL and do not write the unit itself.

>  <Molecular String>
N#Cc1ccc2[nH]cc(CCCCN3CCN(c4ncc(-c5cccc(C(N)=O)c5)cn4)CC3)c2c1

>  <Cmax [ng/mL]>
1100

$$$$
>  <Molecular String>
N#Cc1ccc2[nH]cc(CCCCN3CCN(c4ncc(-c5ccc(Cl)cc5)cn4)CC3)c2c1

>  <Cmax [ng/mL]>
536

$$$$
>  <Molecular String>
N#Cc1ccc2[nH]cc(CCCCN3CCN(c4ccc5oc(C(N)=O)cc5c4)CC3)c2c1

>  <Cmax [ng/mL]>
488

$$$$

Ask: Entry under review: N#Cc1ccc2[nH]cc(CCCCN3CCN(c4ncc(-c5ccc(F)cc5F)cn4)CC3)c2c1 . Reported Cmax?
Reply: 520

* * *

# Test Summary: Half life in Beagle dog at 5 mg/kg, po measured upto 24 hrs by LC-MS/MS analysis
# Assay type: ADME, organism-based, Canis lupus familiaris
# Condition Info: in vivo
Endpoint Label: half-life (h)
Please reply with the bare figure in h and do not write the unit itself.

Here's what some known entries look like.
>  <Molecular String>
N#Cc1ccc2[nH]cc(CCCCN3CCN(c4ncc(-c5cccc(C(N)=O)c5)cn4)CC3)c2c1

>  <Measurement>
4.46

$$$$
>  <Molecular String>
N#Cc1ccc2[nH]cc(CCCCN3CCN(c4ncc(-c5ccc(Cl)cc5)cn4)CC3)c2c1

>  <Measurement>
15.7

$$$$
>  <Molecular String>
N#Cc1ccc2[nH]cc(CCCCN3CCN(c4ccc5oc(C(N)=O)cc5c4)CC3)c2c1

>  <Measurement>
2.15

$$$$

Attention now shifts to the item below.
Ask: Entry under review: N#Cc1ccc2[nH]cc(CCCCN3CCN(c4ncc(-c5ccc(F)cc5F)cn4)CC3)c2c1 . Reported half-life?
Reply: 16.4
